# targetEntity: T1, RBP7910 WT (Trypanosoma brucei, UniProt Q38AH3 9-189)
# T1 sequence: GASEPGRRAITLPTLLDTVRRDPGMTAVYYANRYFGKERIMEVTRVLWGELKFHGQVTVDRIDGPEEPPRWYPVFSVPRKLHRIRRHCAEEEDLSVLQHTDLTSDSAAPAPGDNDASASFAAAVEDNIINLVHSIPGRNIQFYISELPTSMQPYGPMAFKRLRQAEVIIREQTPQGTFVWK
# assayExplanation: EMSA; 95% CI 1.25-1.97; RBB50: 20 mM Tris-HCl pH 7.6, 50 mM KCl, 5 mM MgCl2, 100 mg/mL BSA (so in the source), 10% glycerol, 1 mM DTT, plus 100 mM KCl and 20 U RNasin; 20 ul, 30 min, RT; native 10% TBE gel at 4 C
# statedConditions: protein: recombinant; tags: N-terminal 6xHis (pET30-a); label: 32P (UTP body or 3' pCp)
propertyLabel: pKd
pKd (log units): -log10 of the concentration in mol/L.

# query: pKd of entry CYb edited mRNA (ssRNA) RNA: GGGAAAUAUGUUUUUUCGUGUUAGAUUUUUGUUAUUUUUUUUAUUAUUUAGAAAUUUAUGUUGUCUUUUUA
8.80
